Where do these numbers come from? They come from the supplement of paper PMC6089552.

Tested on: A673/TR/shEF
protocol-details: cell viability (LOESS-normalised, relative to median of negative controls) (log2 ratio); higher = more viable cells (less compound effect), active = hit call of the paper (over 3 MAD below the median)
run-conditions: 2.5 µM; library screen: screen1; EWS-FLI1 expression: high (no doxycycline); treatment time: 72 h
Among all 3,200 compounds or so, about 300 (9.4%) showed activity. What follows is part of a selection rich in actives, with near analogues and random picks from the rest.
endpoint-label: cell viability (log2)
Answer field: number only, no words.

// worked examples, cell viability (log2) included
Fill in: cell viability (log2) of `NCC(=O)c1ccccc1` is ___
0.0615

# get_value(readout='cell viability (log2)', item= `c1ccc(N=Nc2ccccc2)cc1` )
0.0868

Quick one: cell viability (log2) for `CC(=O)[O][Hg][c]1ccccc1` ?
-2.86

For CC(N)C(O)c1ccc(O)c(O)c1 (centres undefined) , what is its reported cell viability (log2)?
0.146

Form field: reported cell viability (log2) of `CC1(C)C(=O)C=C[C@]2(C)[C@H]3CC[C@@]4(C)[C@H](c5ccoc5)OC(=O)[C@H]5O[C@]54[C@]3(C)[C@H](O)C[C@@H]12`
0.0641

What does the record list as cell viability (log2) for CC1(C)C2CC(=O)[C@]3(C)C(CC[C@@]4(C)[C@H](c5ccoc5)OC(=O)[C@H]5O[C@]543)[C@@]2(C)C=C[C@@H]1O (some centres undefined) ?
0.177

Which cell viability (log2) reading was recorded for the compound `O=C(O)COc1cc(Cl)c(Cl)cc1Cl` ?
0.0828

Given the entry ClC1=C(Cl)C2(Cl)C3C(Cl)C=CC3C1(Cl)C2(Cl)Cl (centres undefined) , report its measured cell viability (log2).
0.0862

# ---- query compound ----
Value lookup for cell viability (log2); key = `C/C=C(\C)C(=O)O[C@H]1C[C@@H](OC(C)=O)[C@@]2(C(=O)OC)CO[C@H]3[C@@H](O)[C@@](C)([C@]45O[C@@]4(C)[C@H]4C[C@@H]5O[C@@H]5OC=C[C@@]54O)[C@H]4[C@]1(CO[C@]4(O)C(=O)OC)[C@@H]32`
0.139

---

Items are presented alongside their recorded cell viability (log2).
Test system: A673/TR/shEF
protocol-details: cell viability (LOESS-normalised, relative to median of negative controls) (log2 ratio); higher = more viable cells (less compound effect), active = hit call of the paper (over 3 MAD below the median)
run-conditions: 0.926 µM; library screen: screen3; EWS-FLI1 expression: low (doxycycline-induced shRNA knockdown); treatment time: 72 h
Among all 3,200 compounds or so, about 300 (9.4%) showed activity. What follows is part of a selection rich in actives, with near analogues and random picks from the rest.
# print the numeric value only

// solved cases for cell viability (log2) follow
Fill in: cell viability (log2) of C[C@@H]1[C@H](O)[C@@H](C)/C=C/C=C/CC/C=C/C=C/C=C/C=C/C(O[C@H]2O[C@H](C)[C@@H](O)[C@H](N)[C@@H]2O)CC2O[C@](O)(CC(O)C(O)CCC(O)CC(O)CC(O)CC(=O)O[C@H]1C)CC(O)C2C(=O)O (stereo not given in full) is ___
0.0539

Dear colleague, I am looking for the recorded cell viability (log2) of the following molecule: `CN(C)[C@@H]1C(=O)C(C(N)=O)=C(O)[C@@]2(O)C(=O)C3=C(O)c4c(O)cccc4[C@@](C)(O)[C@H]3[C@H](O)[C@@H]12`
0.101

I'd like to know its cell viability (log2). The molecule in question is `CC(=O)O[C@H]1C[C@@H]2CC[C@@H]3[C@H](CC[C@@]4(C)[C@H]3C[C@H]([N+]3(C)CCCCC3)[C@@H]4OC(C)=O)[C@@]2(C)C[C@@H]1[N+]1(C)CCCCC1`
0.0779

Requested read-out: cell viability (log2). Entry: CN1[C@H]2CC(OC(=O)C(CO)c3ccccc3)C[C@H]1[C@H]1O[C@H]12 (stereo not given in full)
0.0457

More entries:
What does the record list as cell viability (log2) for `C[C@]12CC[C@H](O)CC1=CC[C@@H]1[C@@H]2CC[C@]2(C)C(=O)CC[C@@H]12` ?
0.0349

Reported cell viability (log2), molecule `Cc1cccc(C)c1NC(=O)CN1CCCC1=O` : ____
0.0891

I would be grateful if you could share the reported cell viability (log2) for O=C(OC1CC2CCC(C1)[N+]21CCCC1)C(O)(c1ccccc1)c1ccccc1 (stereo not given) .
0.0427

cell viability (log2) lookup needed for `Cn1c(CCCC(=O)O)nc2cc(N(CCCl)CCCl)ccc21` , thanks.
0.00947

# input molecule: O=P1(N(CCCl)CCCl)NCCCO1 (stereo not given) ; wanted: its cell viability (log2)
0.061

I'd like to know its cell viability (log2). The molecule in question is CCOC(=O)c1cncn1C(C)c1ccccc1 (stereo not given)
0.0966
